system: 695427-040-R-J1-PDC complex spheroids, viability percent T/C; test: Anticancer human tumor 695427-040-R-J1-PDC patient-derived colon adenocarcinoma cell line growth inhibition [GQUAD]; conditions: second compound 10 µM; first compound 0.0999 µM; active compounds read low
Recorded viability, T/C by entry
Numbers only; they are read as %.

{"COMPOUND": "CCc1c2c(nc3ccc(O)cc13)-c1cc3c(c(=O)n1C2)COC(=O)[C@]3(O)CC + CN(C)c1ccc(Nc2c3ccc(NC(=O)CCN4CCCC4)cc3nc3cc(NC(=O)CCN4CCCC4)ccc23)cc1", "viability, T/C, %": 60.7}
{"COMPOUND": "Cc1[nH]c2ccccc2c1CCNCc1ccc(/C=C/C(=O)NO)cc1 + Cc1cnc(CNC(=O)c2c(=O)c3ccc(N4CCCN(C)CC4)nc3n3c2sc2ccccc23)cn1", "viability, T/C, %": 14.5}

query: For CCc1c2c(nc3ccc(O)cc13)-c1cc3c(c(=O)n1C2)COC(=O)[C@]3(O)CC + Cc1[nH]c2ccc(F)cc2c1-c1nc2c3cccnc3c3ncccc3c2[nH]1 , what is its reported viability, T/C?
result: 49.8

query: Which viability, T/C value is on record for Cn1ncnc1[C@H]1c2n[nH]c(=O)c3cc(F)cc(c23)N[C@@H]1c1ccc(F)cc1 + Cc1cnc(CNC(=O)c2c(=O)c3ccc(N4CCCN(C)CC4)nc3n3c2sc2ccccc23)cn1 ?
result: 58.5

query: // query viability, T/C value for entry Cc1[nH]c2ccccc2c1CCNCc1ccc(/C=C/C(=O)NO)cc1 + Cc1[nH]c2ccc(F)cc2c1-c1nc2c3cccnc3c3ncccc3c2[nH]1
result: 74.8

query: What does the data say about its viability, T/C? Entry: CC[C@@]1(O)C(=O)OCc2c1cc1n(c2=O)Cc2cc3c(CN(C)C)c(O)ccc3nc2-1 + Cc1cnc(CNC(=O)c2c(=O)c3ccc(N4CCCN(C)CC4)nc3n3c2sc2ccccc23)cn1
result: 48.8

---

Recorded measurements of viability, T/C, one per entry
Tested on: 695427-040-R-J1-PDC complex spheroids, viability percent T/C
Assay: Anticancer human tumor 695427-040-R-J1-PDC cell line growth inhibition [GQUAD];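 also: spheroids exposed to compounds for seven days before readout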
Details: second compound 0.1 µM; first compound 0.316 µM; active compounds read low
Text: DNA G-quadruplex Stabilizer Agents in Combinations in Complex Spheroids A high-throughput screen of multi-cell type tumor spheroids was designed to identify active combinations of DNA G-quadruplex stabilizer agents and targeted small molecules. […] Compounds. […] If the clinical Cmax for an agent had not been determined, the highest concentration tested was 10 microM. […]
Kindly answer with a numeric value in %, unit omitted.

The cases that follow already have their viability, T/C on record.
{"MOLECULE": "Nc1ccn(C2OC(CO)C(O)C2(F)F)c(=O)n1 (stereo unspecified) + Cc1[nH]c2ccc(F)cc2c1-c1nc2c3cccnc3c3ncccc3c2[nH]1", "viability, T/C, %": 59}
{"MOLECULE": "Nc1ccn(C2OC(CO)C(O)C2(F)F)c(=O)n1 (stereo unspecified) + Cc1cnc(CNC(=O)c2c(=O)c3ccc(N4CCCN(C)CC4)nc3n3c2sc2ccccc23)cn1", "viability, T/C, %": 65.9}
{"MOLECULE": "CC(C)(O)C1CCC(Nc2ccc3ncc(-c4cccc(C(F)(F)F)c4)n3n2)CC1 (stereo unspecified) + Cc1cnc(CNC(=O)c2c(=O)c3ccc(N4CCCN(C)CC4)nc3n3c2sc2ccccc23)cn1", "viability, T/C, %": 78.2}
{"MOLECULE": "CC[C@@]1(O)C(=O)OCc2c1cc1n(c2=O)Cc2cc3c(CN(C)C)c(O)ccc3nc2-1 + Cc1cnc(CNC(=O)c2c(=O)c3ccc(N4CCCN(C)CC4)nc3n3c2sc2ccccc23)cn1", "viability, T/C, %": 77.5}
{"MOLECULE": "Cc1[nH]c2ccccc2c1CCNCc1ccc(/C=C/C(=O)NO)cc1 + Cc1cnc(CNC(=O)c2c(=O)c3ccc(N4CCCN(C)CC4)nc3n3c2sc2ccccc23)cn1", "viability, T/C, %": 65.5}

query: # lookup: viability, T/C of C=CCn1c(=O)c2cnc(Nc3ccc(N4CCN(C)CC4)cc3)nc2n1-c1cccc(C(C)(C)O)n1 + Cc1[nH]c2ccc(F)cc2c1-c1nc2c3cccnc3c3ncccc3c2[nH]1
result: 103

---

system: 695427-040-R-J1-PDC complex spheroids, viability percent T/C; experiment: Anticancer human tumor 695427-040-R-J1-PDC cell line growth inhibition [GQUAD]; conditions: second compound 0.316 µM; first compound 10 µM; active compounds read low;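 also: spheroids exposed to compounds for seven days before readout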
VALUE_KIND: viability, T/C (%)
The reply should be a number in %, with the unit left off.

{"MOLECULE": "C=CC(=O)N1CCN(c2nc(=O)n(-c3c(C)ccnc3C(C)C)c3nc(-c4c(O)cccc4F)c(F)cc23)C(C)C1 (stereo not given) + Cc1[nH]c2ccc(F)cc2c1-c1nc2c3cccnc3c3ncccc3c2[nH]1", "UNIT_STRING": "%", "RECORDED_RESULT": 92.8}
{"MOLECULE": "COc1cc(C2c3cc4c(cc3C(OC3OC5COC(C)OC5C(O)C3O)C3COC(=O)C23)OCO4)cc(OC)c1O (stereo not given) + Cc1cnc(CNC(=O)c2c(=O)c3ccc(N4CCCN(C)CC4)nc3n3c2sc2ccccc23)cn1", "UNIT_STRING": "%", "RECORDED_RESULT": 69.7}
{"MOLECULE": "O=c1[nH]cc(F)c(=O)[nH]1 + CN(C)c1ccc(Nc2c3ccc(NC(=O)CCN4CCCC4)cc3nc3cc(NC(=O)CCN4CCCC4)ccc23)cc1", "UNIT_STRING": "%", "RECORDED_RESULT": 94.5}
{"MOLECULE": "CC1COCCN1c1cc(C2(O)CC3CCC(C2)O3)c2cnn(-c3ccn[nH]3)c2n1 (stereo not given) + Cc1[nH]c2ccc(F)cc2c1-c1nc2c3cccnc3c3ncccc3c2[nH]1", "UNIT_STRING": "%", "RECORDED_RESULT": 30.2}

query: Find the recorded viability, T/C belonging to COc1cc(C2c3cc4c(cc3C(OC3OC5COC(C)OC5C(O)C3O)C3COC(=O)C23)OCO4)cc(OC)c1O (stereo not given) + CN(C)c1ccc(Nc2c3ccc(NC(=O)CCN4CCCC4)cc3nc3cc(NC(=O)CCN4CCCC4)ccc23)cc1 and report it.
result: 76.7

---

test system: 695427-040-R-J1-PDC complex spheroids, viability percent T/C; test: Anticancer human tumor 695427-040-R-J1-PDC cell line growth inhibition [GQUAD]; settings: second compound 3.16 µM; first compound 0.1 µM; active compounds read low;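 also: spheroids exposed to compounds for seven days before readout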
VALUE_KIND: viability, T/C

Here are 2 compounds together with their reported answers.
{"COMPOUND": "CC(C)n1c(=O)n(C)c2cnc3cc(F)c(-c4ccc(OCCCN5CCCCC5)nc4)cc3c21 + Cc1[nH]c2ccc(F)cc2c1-c1nc2c3cccnc3c3ncccc3c2[nH]1", "RECORDED_RESULT": "85%"}
{"COMPOUND": "COc1ccc([C@@H](O)c2cc(-c3ncnc4cc(N5CCOCC5)ccc34)c(F)cc2Cl)nn1 + Cc1cnc(CNC(=O)c2c(=O)c3ccc(N4CCCN(C)CC4)nc3n3c2sc2ccccc23)cn1", "RECORDED_RESULT": "46.3%"}

query: Could you share which viability, T/C value was measured for COc1cc(C2c3cc4c(cc3C(OC3OC5COC(C)OC5C(O)C3O)C3COC(=O)C23)OCO4)cc(OC)c1O (stereo unspecified) + Cc1cnc(CNC(=O)c2c(=O)c3ccc(N4CCCN(C)CC4)nc3n3c2sc2ccccc23)cn1 ?
result: 50.7%

query: Which viability, T/C reading was recorded for the compound O=c1[nH]cc(F)c(=O)[nH]1 + Cc1[nH]c2ccc(F)cc2c1-c1nc2c3cccnc3c3ncccc3c2[nH]1 ?
result: 81.7%

query: Tell me the measured viability, T/C of COc1ncnc(C2CC2)c1-c1ncc2cnn(Cc3ccc(-c4nc(C(F)(F)F)cn4C(C)C)cc3)c2n1 + Cc1cnc(CNC(=O)c2c(=O)c3ccc(N4CCCN(C)CC4)nc3n3c2sc2ccccc23)cn1 , please.
result: 37.7%

query: // viability, T/C lookup, key: CCCS(=O)(=O)Nc1ccc(F)c(C(=O)c2c[nH]c3ncc(-c4ccc(Cl)cc4)cc23)c1F + Cc1[nH]c2ccc(F)cc2c1-c1nc2c3cccnc3c3ncccc3c2[nH]1
result: 86.2%

---

test system: 695427-040-R-J1-PDC complex spheroids, viability percent T/C; assay: Anticancer human tumor 695427-040-R-J1-PDC cell line growth inhibition [GQUAD]; details: second compound 1 µM; first compound 0.316 µM; active compounds read low;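 also: spheroids exposed to compounds for seven days before readout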
VALUE_KIND: viability, T/C (%)
Entry rule: numbers only, all in %.

Here is how some compounds turned out for viability, T/C.
{"COMPOUND": "C=CC(=O)N1CCN(c2nc(=O)n(-c3c(C)ccnc3C(C)C)c3nc(-c4c(O)cccc4F)c(F)cc23)C(C)C1 (stereo not given) + CN(C)c1ccc(Nc2c3ccc(NC(=O)CCN4CCCC4)cc3nc3cc(NC(=O)CCN4CCCC4)ccc23)cc1", "viability, T/C / %": 99.7}
{"COMPOUND": "CCCS(=O)(=O)Nc1ccc(F)c(C(=O)c2c[nH]c3ncc(-c4ccc(Cl)cc4)cc23)c1F + Cc1cnc(CNC(=O)c2c(=O)c3ccc(N4CCCN(C)CC4)nc3n3c2sc2ccccc23)cn1", "viability, T/C / %": 74.1}
{"COMPOUND": "Cc1cccc(N(C)C(=O)C2C(O)CCN2c2nc(C)cc(C(F)(F)F)c2C#N)c1 (stereo not given) + Cc1[nH]c2ccc(F)cc2c1-c1nc2c3cccnc3c3ncccc3c2[nH]1", "viability, T/C / %": 85.2}
{"COMPOUND": "C#Cc1c(F)ccc2cc(O)cc(-c3ncc4c(N5CC6CCC(C5)N6)nc(OCC56CCCN5CC(F)C6)nc4c3F)c12 (stereo not given) + Cc1cnc(CNC(=O)c2c(=O)c3ccc(N4CCCN(C)CC4)nc3n3c2sc2ccccc23)cn1", "viability, T/C / %": 61.8}

--- query ---
query: I am curious: what viability, T/C value has been reported for CC(C)n1c(=O)n(C)c2cnc3cc(F)c(-c4ccc(OCCCN5CCCCC5)nc4)cc3c21 + Cc1[nH]c2ccc(F)cc2c1-c1nc2c3cccnc3c3ncccc3c2[nH]1 ?
result: 111

The measurements presented in this section are drawn from PubChem BioAssay AID2060492.
